- method-summary: KAR-001 Phase I study: xanomeline pharmacokinetics
- condition-notes: human, in vivo, oral, 225 mg daily, Xanomeline AUC0-tau, KAR-001 Day 9; geometric mean
readout-type: AUC (ng·h/mL)
Supply the numeric figure in ng·h/mL, leaving out any unit text.

AUC lookup needed for CCCCCCOc1nsnc1C1=CCCN(C)C1 , thanks.
24.8

----------
- method-summary: KAR-001 Phase I study: xanomeline pharmacokinetics
- condition-notes: human, in vivo, oral, 225 mg daily, Xanomeline AUC0-tau, KAR-001 Day 3; geometric mean
readout-type: AUC (ng·h/mL)
Kindly answer with a numeric value in ng·h/mL, unit omitted.

Field request: AUC | item: CCCCCCOc1nsnc1C1=CCCN(C)C1
12.6
